The reported numbers originate from PubChem BioAssay (NCI).

- Test system: NCI-H460 lung
- Experiment summary: NCI tumour cell line growth inhibition, 48 h
*1 amine or outer side, *2 acyl side, *3 side chain or, on linkers, in order; H or OH if unused. Where a SMILES comes first, the peptide text is derived from it. Bridges are numbered along the chain shown (N, C = ends). Roman numbers before positions name the chains, in order. [ ]: non-standard residue; d: D form. Actinocin(9to1) = Cc1c2oc3c(C)ccc(C(=O)[*:1])c3nc-2c(C(=O)[*:2])c(N)c1=O; NMeV = CN[CH](C(=O)O)C(C)C; Sar = CNCC(=O)O
Attribute measured: TGI

Query :: What does the data say about its TGI? Entry: COc1ccc2c(c1)C(=O)/C(=C/c1ncc([N+](=O)[O-])n1C)O2
Result :: 7.38 µM

Query :: Value lookup for TGI; key = O=C1Cc2c([nH]c3ccc(Br)cc23)-c2ccccc2N1
Result :: > 100 µM

Query :: Request the reported TGI associated with COc1ccc(-c2c(N)n(-c3cccc(C(=O)O)c3)c(=O)c3cc([N+](=O)[O-])ccc23)cc1
Result :: > 100 µM

Query :: Could you tell me which TGI is on file for Cc1cc(-c2nc3ccccc3s2)ccc1NC(=O)[C@H](C)N ?
Result :: 25.6 µM

Query :: If you can, please state the reported TGI value of COC(OC)C1OC(CO)C(n2ccc(N)nc2=O)C1O (configuration not stated) .
Result :: > 100 µM

Query :: Please give the measured TGI for this compound: CCN1c2ccccc2C(Cl)(c2ccc(N(C)C)cc2)c2ccccc21
Result :: 23.4 µM

Query :: Can you look up the measured TGI of CCOC(=O)C1SC(=Nc2ccc(Cl)c(Cl)c2)N=C1C (configuration not stated) for me?
Result :: > 100 µM

Query :: Name the reported TGI value associated with the compound COc1cc(/C=C2\N=C(c3ccccc3)N(c3nc4c(OC)ccc(OC)c4s3)C2=O)cc(OC)c1OC
Result :: > 100 µM

Query :: Requested read-out: TGI. Entry: Cc1c2oc3c(C)ccc(C(=O)NC4C(=O)NC(C(C)O)C(=O)N5CCCC5C(=O)N(C)CC(=O)N(C)C(C(C)C)C(=O)OC4C)c3nc-2c(C(=O)NC2C(=O)NC(C(C)O)C(=O)N3CCCC3C(=O)N(C)CC(=O)N(C)C(C(C)C)C(=O)OC2C)c(N)c1=O (configuration not stated) (I: TTP[Sar][NMeV] / II: TTP[Sar][NMeV]; ester I:1-I:C, II:1-II:C; linker I:N-II:N via Actinocin(9to1); configuration not given here)
Result :: > 100 µM

Query :: Which TGI is reported for this compound? O=C(C(=O)N1CC2C=CC1CC2)c1c[nH]c2ccccc12 (configuration not stated)
Result :: > 100 µM

Query :: Look up TGI: NC1=NC(c2ccc(Cl)cc2)C2=C(N1)/C(=C/c1ccc(Cl)cc1)CCC2 (configuration not stated)
Result :: 29.8 µM

Query :: Give the measured TGI of COc1ccc(-n2c3c(c4c(CN5CCOCC5)c(O)ccc42)CCc2ccccc2C3=O)cc1 .
Result :: > 100 µM

Query :: Suppose we examine the compound COc1ccc(N=N/C(=N/NC(=O)c2ccccc2)c2ccc(N(CCC#N)CCC#N)cc2C)cc1 ; what TGI value has been reported?
Result :: > 100 µM

Query :: What does the data say about its TGI? Entry: Cc1ccc2c(c1)NC(=O)CC(c1ccccc1)=N2
Result :: > 100 µM

Query :: Any idea what its TGI is? The compound is N#CCc1ncc(-c2ccc(C(F)(F)F)cc2)c(NC2CCCCCC2)n1
Result :: > 10 µM

Query :: What does the data say about its TGI? Entry: COc1cccc(/C=C/c2cnc3ccccc3n2)c1OC
Result :: > 100 µM

Query :: Reported TGI for Cc1ccc(SC2=CC(=O)c3nc4ccccc4c4ccnc2c34)cc1 : what is it?
Result :: > 100 µM

---

- Test system: K-562 leukemia
- Experiment summary: NCI tumour cell line growth inhibition, 48 h; in the data active = GI50 below about 0.43 µM; inactive = the rest
Field 'call' accepts true (1) = active, false (0) = inactive

Query :: Recorded test call requested for COc1cccc2c1C(=O)c1c(O)c3c(c(O)c1C2=O)C[C@@](O)(C(=O)CO)C[C@@H]3OC1C[C@H](N)[C@H](O)[C@H](C)O1 (stereo not given in full)
Result :: true (1)

Query :: How did this test come out for O=C(c1ccco1)c1c(C(F)(F)F)n([O-])c2ccccc2[n+]1=O ?
Result :: true (1)

Query :: Could you please tell me the result logged for COc1ccc(Cl)cc1NC(=O)C(Br)C(Br)C(=O)O (stereo not given) in this assay?
Result :: false (0)

Query :: What is the recorded call for this molecule in the test? COc1ccc(-n2c3c(c4c(CN5CCOCC5)c(O)ccc42)CCc2ccccc2C3=O)cc1
Result :: false (0)

Query :: For C=CC(=O)N[C@H]1CCOC[C@H]1Nc1ncc2cc(-c3c(Cl)c(OC)cc(OC)c3Cl)ccc2n1 , which call appears in the assay record?
Result :: false (0)

---

- System: KM12 colon
- Experiment summary: NCI tumour cell line growth inhibition, 48 h; in the data active = GI50 below about 0.43 µM; inactive = the rest
I would appreciate it if you answered using one of these outcomes: active, inactive

Query :: Please state the recorded outcome for this compound: O=C(N/N=C/c1ccc([N+](=O)[O-])cc1)c1ccc2nc(-c3ccc(Cl)cc3)[nH]c2c1
Result :: inactive

Query :: Short answer needed: outcome of this test for CCN(CCCl)CCCNc1c2ccccc2nc2ccc(OC)cc12 ?
Result :: inactive

Query :: Could you check what this test reported for Cc1c2c[n+](C(C)C)ccc2c(C)c2c1[nH]c1ccccc12 ?
Result :: inactive

Query :: Which outcome was assigned to N#CCc1ncc(-c2ccc(C(F)(F)F)cc2)c(NC2CCCCCC2)n1 in this test?
Result :: inactive

Query :: Which outcome was assigned to COc1ccc2c(c1)C(=O)/C(=C/c1ncc([N+](=O)[O-])n1C)O2 in this test?
Result :: active

Query :: How was C=CCC(N[C@H](CO)c1ccccc1)c1cn(C(=O)OCC)c2ccccc12 (stereo not given in full) classified in this test?
Result :: inactive

Query :: Hi, do you know how CO[C@@H]1/C=C(C)/C=C/[C@@H](C)/C=C(\C)C(=O)OC(/C(C)=C/C=C(\C)CNC(=O)[C@H](CO)NC=O)[C@@H](C)/C=C/C=C/[C@H](OC)CC/C=C(C)/C=C/C1 (stereo not given in full) came out in this test?
Result :: active

Query :: Could you please tell me the result logged for C=C1C(=O)O[C@H]2[C@H]1CC/C(COC(=O)NCCc1c[nH]c3ccc(OC)cc13)=C\CC[C@@]1(C)O[C@@H]21 in this assay?
Result :: inactive

Query :: // return assay outcome for C=CC1CC12C(=O)C1OC2(C)C2C(=O)c3c(O)ccc(O)c3C(=O)C12 (stereo not given)
Result :: inactive

Query :: Which outcome did this test record for the compound C=CCC1(O)c2cccc(NCCO)c2C(=O)c2c(NCCO)cccc21 ?
Result :: inactive

Query :: Lab log entry: COc1cc2c[n+](C)c3c4ccccc4ccc3c2cc1OC (tested in a mixture with another compound) — outcome as called in the assay?
Result :: inactive

Query :: Answer briefly: the call reported for COc1ccccc1/C=N\N=C(N/N=C/c1ccccc1OC)N/N=C/c1ccccc1OC in this assay.
Result :: inactive

Query :: Record lookup: outcome of this test for C=CC(=O)N[C@H]1CCOC[C@H]1Nc1ncc2cc(-c3c(Cl)c(OC)cc(OC)c3Cl)ccc2n1 ?
Result :: inactive

Query :: Hi team, can someone confirm the assay call for C#Cc1c(C(N)=O)ncn1C1OC(COP(=O)(OCc2ccc([N+](=O)[O-])o2)N(C)CCCCCl)C(O)C1O (stereo not given) ?
Result :: inactive

Query :: Would you mind telling me which call this test gave N#C[S-].[Nd+3].c1ccc(-c2ccccn2)nc1.c1ccc(-c2ccccn2)nc1.c1ccc(-c2ccccn2)nc1 ?
Result :: inactive

Query :: // return assay outcome for COc1ccc2nc3cc(Cl)ccc3c(NCCCNCCC(C)O)c2c1 (stereo not given)
Result :: active

Query :: How did this test come out for NS(=O)(=O)c1cccc(N=Cc2c(O)[nH]c3ccccc23)c1 ?
Result :: inactive

Query :: Could you check what this test reported for C=C(c1ccc(C(=O)N(C)c2ccccc2N)cc1)C(C)N1C(=O)[C@H]2CCCN2C(=O)c2ccccc21 (stereo not given in full) ?
Result :: inactive

Query :: Check the results log: what was the call for O=C(Cc1cccc(OC(F)(F)F)c1)Nc1ccc(CCCCc2nnc(NC(=O)Cc3ccccn3)s2)nn1 ?
Result :: inactive

Query :: What did this assay record as the result for COc1ccccc1C#Cc1ccccc1C#CCCCCCC#Cc1ccccc1C#Cc1ccccc1OC ?
Result :: inactive

---

- Test system: K-562 leukemia
- Experiment summary: NCI tumour cell line growth inhibition, 48 h
Attribute measured: GI50

Query :: So what's the measured GI50 for this one? COc1cc2c[n+](C)c3c4ccccc4ccc3c2cc1OC (tested in a mixture with another compound)
Result :: 2.29 µM

Query :: Report GI50 for Cc1c(C)[n+](=O)c(C)c(C)n1[O-] please.
Result :: > 100 µM

Query :: Fill in the blank: the reported GI50 of CN1CCN(Cc2ccc(NC(=O)c3ccc(C#Cc4c(N)ncc5ccc(F)cc45)cc3)cc2C(F)(F)F)CC1 is ____.
Result :: 0.677 µM

Query :: Looking for the measured GI50 of C=CC1CC12C(=O)C1OC2(C)C2C(=O)c3c(O)ccc(O)c3C(=O)C12 (stereo not given) , can you help?
Result :: 2.48 µM

Query :: // lookup GI50 for O=C(Cc1cccc(OC(F)(F)F)c1)Nc1ccc(CCCCc2nnc(NC(=O)Cc3ccccn3)s2)nn1
Result :: 16.9 µM
